# Test system: P388
# assay_details: Cytotoxicity against mouse P388 cells
# Type: functional, cell-based
Catalogue of IC50 readings, one per entry.
Kindly answer with a numeric value in µg/mL, unit omitted.

Reference set (5 entries):
CC(=O)O[C@@H]1OCC2=CC[C@H]3C4=C[C@@H](OC(C)=O)[C@H]5C(C)(C)CCC[C@]5(C)[C@H]4CC[C@]3(C)[C@H]21    3
CC(=O)O[C@@H]1OCC2=CC[C@H]3C4=CC[C@H]5C(C)(C)CCC[C@]5(C)[C@H]4CC[C@]3(C)[C@H]21    3
CC(=O)O[C@@H]1OC=C2CC[C@@H]3[C@](C)(CC[C@@H]4[C@@]5(C)CCCC(C)(C)[C@@H]5CC[C@@]34C=O)[C@H]21    3
CC(=O)OC[C@@]1(C)CCC[C@]2(C)[C@H]3CC[C@]4(C)[C@@H](C=O)C(C=O)=CC[C@H]4C3=CC[C@@H]12    3
CC1(C)CCC[C@]2(C)[C@H]3CC[C@]4(C)[C@@H](C=O)C(C=O)=CC[C@H]4C3=CC[C@@H]12    0.8

Let's switch to this compound now.
Recorded IC50 for CC1(C)CCC[C@]2(C)[C@H]3CC[C@]4(C)[C@H](C=O)C(C=O)=CC[C@H]4C3=CC[C@@H]12 , please?
1.2
